The listing below reports pIC50 for compounds tested on Falcipain-3 (Plasmodium falciparum 3D7).
Sequence (Q8IIL0 243-492 limits assumed): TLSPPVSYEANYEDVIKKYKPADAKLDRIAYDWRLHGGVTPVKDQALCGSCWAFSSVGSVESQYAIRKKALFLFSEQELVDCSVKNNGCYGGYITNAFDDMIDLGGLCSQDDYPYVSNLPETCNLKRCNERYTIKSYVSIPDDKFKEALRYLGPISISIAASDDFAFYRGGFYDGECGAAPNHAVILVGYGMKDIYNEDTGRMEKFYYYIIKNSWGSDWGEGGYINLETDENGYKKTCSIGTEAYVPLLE
Schema: pIC50 number; meaning minus log10 of the concentration expressed in molar units.

Provide one value: measured pIC50 of COc1cccc(C(c2ccc(F)c(F)c2)N2CCN(c3cnccn3)CC2)c1O (configuration not stated)
4.56

State its pIC50 for this compound: COc1ccc(C(c2ccccc2O)N2CCN(c3cnccn3)CC2)cc1 (configuration not stated)
4.47

Answer with the recorded pIC50 for the compound listed here: Oc1ccccc1C(c1ccc(C(F)(F)F)cc1)N1CCN(c2cnccn2)CC1 (configuration not stated)
5.02

Look up and report measured pIC50 for this entry: COc1cccc(C(c2ccc(OC(F)(F)F)cc2)N2CCN(c3cnccn3)CC2)c1O (configuration not stated)
4.84

Please report the measured pIC50 for COc1cccc(C(c2ccc(C(F)(F)F)cc2)N2CCN(c3cnccn3)CC2)c1O (configuration not stated)
5.17

Please report the measured pIC50 for Oc1ccccc1C(c1ccc(OC(F)(F)F)cc1)N1CCN(c2cnccn2)CC1 (configuration not stated)
5.19

Specify measured pIC50 for Oc1ccccc1C(c1ccc(Cl)c(Cl)c1)N1CCN(c2cnccn2)CC1 (configuration not stated) .
5.16

Each recorded value in this set is attributed to ChEMBL document CHEMBL5335837.
